Source of measurements: PubChem BioAssay (NCI)

Test system: OVCAR-8 ovarian
Experiment: NCI tumour cell line growth inhibition, 48 h
Answer each item with its documented TGI.
Numbers only, in µM.

The examples below pair each entry with its known result.
{"molecule": "N#Cc1ccc(O)c(C2=NCC(c3ccc(-c4ccccc4)cc3)O2)c1 (stereo unspecified)", "readout-value": 13}
{"molecule": "O=c1oc2c(O)c(O)cc3c(=O)oc4c(O)c(O)cc1c4c23", "readout-value": 88.7}
{"molecule": "COc1cccc2c1C(=O)c1c(O)c3c(c(O)c1C2=O)CC(O)(C(C)=O)CC3OC1OC(COC(C)=O)C(OC(C)=O)C(OC(C)=O)C1OC(C)=O (stereo unspecified)", "readout-value": 37.2}
{"molecule": "CC1=C(C(=O)Nc2ccccc2C)C(c2ccccc2O)C(C(=O)Nc2ccccc2C)=C(C)N1", "readout-value": 40.2}
{"molecule": "Cc1cc(C(=O)CC(Cl)=C(Cl)Cl)c(Cl)cc1Cl", "readout-value": 46.3}
{"molecule": "CCN(CC)CCC(=O)Nc1ccc2sc3ccccc3c(=O)c2n1", "readout-value": 62.4}

// batch mode: one TGI value per listed entry
1. C[N+]1(C)C/C(=C\C=C\c2ccccc2)C(=O)/C(=C/C=C/c2ccccc2)C1
2. CC(c1ccccc1)n1c2ccccc2c2c(N)ncnc21 (stereo unspecified)
3. C=C(C)C1CC=C(C)C(O)([C@@]2(O)C[C@H](C(=C)C)CC=C2C)C1 (stereo partly specified)
4. COc1ccccc1/C=C1\CCC(CN2CCOCC2)C1=O (stereo unspecified)

53.1
31.8
35.5
16.9

====

System: SK-MEL-28 melanoma
Test: NCI tumour cell line growth inhibition, 48 h
Could you please report measured log10(TGI) for the items listed next?
The common logarithm of TGI in µM is what is listed.

# example entries with known answers
{"compound": "N#Cc1c2c(c(Nc3cccc(C(F)(F)F)c3)n3c1nc1ccccc13)CCCC2", "system": "SK-MEL-28 melanoma", "readout-name": "log10(TGI)", "readout-value": 1.68}
{"compound": "O=C(CCN1CCCC1)Nc1ccc2c(Nc3ccc(Br)cc3)c3ccccc3nc2c1", "system": "SK-MEL-28 melanoma", "readout-name": "log10(TGI)", "readout-value": 0.48}
{"compound": "COC1/C=C/OC2(C)Oc3c(C)c(O)c4c(O)c(c(/C=N/N(c5ccccc5)c5ccccc5)c(O)c4c3C2=O)NC(=O)C(C)=C/C=C/C(C)C(O)C(C)C(O)C(C)C(OC(C)=O)C1C (centres undefined)", "system": "SK-MEL-28 melanoma", "readout-name": "log10(TGI)", "readout-value": 0.39}
{"compound": "CCN(CC)CCC(=O)Nc1ccc2sc3ccccc3c(=O)c2n1", "system": "SK-MEL-28 melanoma", "readout-name": "log10(TGI)", "readout-value": 1.53}
{"compound": "CCC/C=C/C=C\\C(=O)O[C@@H]1[C@@H](C)[C@]2(O)[C@@H]3C=C(C)C(=O)[C@H]3CC(COC(C)=O)=C[C@H]2[C@@H]2C(C)(C)[C@]12OC(C)=O", "system": "SK-MEL-28 melanoma", "readout-name": "log10(TGI)", "readout-value": 1.94}

Please give log10(TGI) for each item listed below.
1. CC(C)c1ccc(C(c2c(O)c3ccccc3oc2=O)c2c(O)c3ccccc3oc2=O)cc1
2. C[C@H]1[C@H](C)CC[C@]2(C(=O)O)CCC3(COC(=O)/C=C/c4ccc(O)cc4)C(=CCC4[C@@]5(C)CC[C@H](O)C(C)(C)C5CC[C@]43C)[C@H]12 (some centres undefined)
3. CCCn1cc(/C=N\N=C2\C(=O)Nc3ccc(C)cc32)c2ccccc21

1: 1.60; 2: 1.36; 3: 1.57

Endpoint output: log10(TGI) of CC(/C=C1\CCC(CN(C)C)C1=O)c1cccc(Br)c1 (centres undefined) . Value?
1.50
